Value source: a melting point compilation (Tetko et al.; mined from patent text by program, amines drawn as free bases though some values may be those of a salt)

Measured melting point by item

Below, each entry is followed by its recorded melting point result.
compound: CC1(C)c2ccc(C(O)CN3CCN(c4nsc5ccccc45)CC3)cc2C(C)(C)C1O (stereo unspecified)
recordedResult: 88 to 97 °C

compound: O=CN(O)C(COCc1ccccc1)CS(=O)(=O)N1CCN(c2cc(Cl)ncn2)CC1 (stereo unspecified)
recordedResult: 118 to 120 °C

compound: C[C@@H]1OCCN(c2cc(N3CCOCC3)nc(-n3c(N)nc4ccccc43)n2)[C@@H]1C (relative stereo)
recordedResult: 118 to 123 °C

compound: ClC=C(Cl)n1c2ccccc2c2ccccc21
recordedResult: 51 to 53 °C

compound: Clc1c(CBr)c(CBr)cc2ccccc12
recordedResult: 108 °C

Indicate its recorded melting point; the compound in question is CCC(Cl)c1nc2c(C(F)(F)F)cccc2c(=O)o1 (stereo unspecified)
65 to 70 °C

Indicate its recorded melting point; the compound in question is N=C(N)NCCc1ccc(OCCC2Oc3ccccc3N(Cc3ccc4ccccc4c3)C2=O)cc1 (stereo unspecified)
173 to 178 °C

Indicate its recorded melting point; the compound in question is CCCc1cc(=O)oc2cc(OS(=O)(=O)c3ccc(C)cc3)c3c(c12)OC(C)(C)C=C3
150 to 151 °C

Indicate its recorded melting point; the compound in question is COc1ccc2nc(COc3ccc(CC(SC)C(N)=O)cc3)n(C)c2c1 (stereo unspecified)
188 to 190 °C

Indicate its recorded melting point; the compound in question is O=C1N(CC2CCCO2)c2ccccc2C12COc1cc3c(cc12)CCCO3 (stereo unspecified)
151 to 156 °C

Indicate its recorded melting point; the compound in question is CCOC(=O)c1cc(-c2ccc(OC)cc2)[nH]c1N
141 to 142 °C

Indicate its recorded melting point; the compound in question is COc1ccc(C2C(C(=O)c3ccc(N4CCOCC4)cc3)=C(O)C(=O)N2c2ccc(C)nn2)cc1 (stereo unspecified)
232 °C

Indicate its recorded melting point; the compound in question is O=C(NCCCCCCNC(=O)c1ccc2c(c1)OCO2)c1ccc2c(c1)OCO2
183 to 185 °C

Indicate its recorded melting point; the compound in question is N#CN1CCC(C2(O)c3ccccc3CCc3ccc(F)cc32)CC1 (stereo unspecified)
250 °C

Indicate its recorded melting point; the compound in question is N#CC(C#N)=CN(Cc1ccc(Cl)c(Cl)c1)c1cc(C(F)(F)F)cc(C(F)(F)F)c1
102 to 103 °C

Indicate its recorded melting point; the compound in question is Cn1nnnc1NCC(O)COc1cccc(CN2CCCCC2)c1 (stereo unspecified)
156 to 157 °C

Indicate its recorded melting point; the compound in question is COc1cc(Nc2nccc(NC3CCCCC3)n2)cc(OC)c1OC
128 °C

Indicate its recorded melting point; the compound in question is Cn1c(Cl)c(C#N)c2ccccc21
112 to 114 °C

Indicate its recorded melting point; the compound in question is C[C@H](NC(=O)CC(Br)C(=O)c1ccc(Br)cc1)C(=O)O (stereo partly specified)
110 to 113 °C

Indicate its recorded melting point; the compound in question is O=C1O[C@@H](CO)CN1c1ccc(-n2ccnn2)c(F)c1
179 to 180 °C

Indicate its recorded melting point; the compound in question is O=C(Nc1ccc(Br)cn1)C(F)(F)F
70 to 72 °C
